B1: glmS ribozyme (parent)
chain: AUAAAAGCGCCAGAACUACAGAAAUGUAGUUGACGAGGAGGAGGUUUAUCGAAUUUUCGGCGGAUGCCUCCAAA

variants of: B1; assay: self-cleavage kobs at 640 uM GlcN6P; higher = faster cleavage; RNA array; settings: with glucosamine-6-phosphate
This sample holds only a part of the variants without activity.
Would you kindly list self-cleavage kobs at 640 uM GlcN6P for each of these variants?

Here are 10 variants together with their reported answers.
• AUAAAAGCGCCAGAAUUACAGAAAUGUAGUUGACGAGGACGAGGUUUAUCGAAUUUUCGGCGGAUGCCUCCAAA [C16U G40C] = 0.000837 s⁻¹
• AUAAAAGCGCCAGAACUACAGAAAUGUAGUUGACGAGGAGGAGGUUGAUCGAAUUGUCGGUGGAUGGCUUCAAA [U47G U56G C61U C67G C70U] = 0.000281 s⁻¹
• AUAAAACCGCUAGAACUACAGAAAUGUAGUUGACGAGGAGGAGGUUUAUCGAAUUUUCUGUGGAUGCCUCCAAA [G7C C11U G59U C61U] = < 1e-05 s⁻¹
• AUAAAAGCGCCAGAACUACAGAAAUGUAGUAGACGAGGAGGAGGCUUAUCGAAUUUUCGGCGGAUGCCUCCAAA [U31A U45C] = 0.000288 s⁻¹
• AUAAAAGCGCCAGGACUACAGAAAUGUAGUUGACGAGGAGGAGGUUUAUCGUAUUUUCGGCGGAUGCCUCCAAA [A14G A52U] = 9.98e-05 s⁻¹
• AUAAAAGCGCCAGGACUACAGAAAUGUAGUUGACGCGGAGGAGGUUUAUCGAAUUUUCGGCGGAUGCCUCCAAA [A14G A36C] = < 1e-05 s⁻¹
• AUAAAAGGGCCAGAAUUACAGAAAUGUAGUUGACGAGGAGGAGGUUUAUCGAAUUUUCGGCGGAUGCCUCCAAA [C8G C16U] = < 1e-05 s⁻¹
• AUAAAAGCGCCAGAACUACAGAAAUGUAGUUGACGAGGAGGAGGUUUAUCGAAUUUUAGGCGGAUGCAUCCAAA [C58A C68A] = 5.26e-05 s⁻¹
• AUAAAAGCGCCUGAACUACAGAAAUGUAGUUGACGAGGAGGAGGUUUAUCGAAUUUUCGGCGGAUGGCUCAAAA [A12U C67G C71A] = < 1e-05 s⁻¹
• AUAAAAGCGCCAGAACUACAGAAAUGUAGGUAACGAGGAGGAGGUUUGUCGAAUUUUCGGCCGAUGCCUCCAAA [U30G G32A A48G G62C] = < 1e-05 s⁻¹

List reported self-cleavage kobs at 640 uM GlcN6P for each of these variants:
1. AUAAAAGCGCCAGAACUACAGAAAUGUAGUUGACGAGGAGGAGGUUUAUCGAAUUCUCGGCGGAUGCCUCCAAA [U56C]
2. AUAAAAGCGCCAGAACUACAGAAAUGUAGUUGACGAUGAGAAGGUUUAUCGAAUUUUCGGCGGAUGCCUCCAAA [G37U G41A]
3. AUAAAAGCGCCAGAACUACAGAAAUGUAGUUGACCAGGAGGAGGUUUAUCGUAUUUUCGGCGGAUGUAUCCAAA [G35C A52U C67U C68A]
4. AUAAAAGCGCCAGAACUACAGAAAUGUAGUCGACGAGGAGGAGGUUAAUCGAAUUCUCGGCGGAUGCCUCCAAA [U31C U47A U56C]

1: 0.000963 s⁻¹; 2: < 1e-05 s⁻¹; 3: < 1e-05 s⁻¹; 4: 0.000111 s⁻¹
